# System Tested: T1, Cynomolgus monkey complement Factor D (cynomolgus monkey, UniProt P00746 26-253 (human entry))
# T1 construct: also called cyfD; cFD
# T1 chain: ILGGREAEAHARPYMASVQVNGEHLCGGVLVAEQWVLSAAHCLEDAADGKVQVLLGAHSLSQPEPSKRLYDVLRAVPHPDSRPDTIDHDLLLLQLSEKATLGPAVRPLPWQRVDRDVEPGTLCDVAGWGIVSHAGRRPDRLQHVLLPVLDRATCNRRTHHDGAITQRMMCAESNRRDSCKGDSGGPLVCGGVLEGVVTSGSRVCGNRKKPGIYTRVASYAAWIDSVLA
# Protocol: SPR (Biacore T200), Fab format; cynomolgus Factor D (column 'KD (pM) cFD (cyno)')
pKd: −log10 of the molar value.
Measurement Name: pKd

[
  {
    "Binder": "AFD.v8 Fab (Fab, V domains shown, Variant of lampalizumab) VH: EVQLVQSGPELKKPGASVKVSCKASGYTFTNYGMNWVRQAPGQGLEWMGWINTYTGETTYAEDFKGRFVFSLDTSVSTAYLQISSLKAEDTAVYYCEREGGVNNWGQGTLVTVSS VL: DIQVTQSPSSLSASVGDRVTITCITSTSIESDMNWYQQKPGKVPKLLISGGNTLRPGVPSRFSGSGSGTDFTLTISSLQPEDVATYYCLQSDSLPYTFGQGTKVEIKR",
    "Measurement Name": "pKd",
    "Readout Value": 10.62
  },
  {
    "Binder": "hu20D12.v2.0 Fab (Fab, V domains shown, Fab expressed in E. coli; also called Hu20D12.v1.N54S; hu20D12.v1.N54S) VH: EVQLVQSGAEVKKPGASVKVSCKASGYTFTSYYMYWVRQAPGQGLEWIGEINPTSGGTNFNEKFKSRATLTVDTSTSTAYLELSSLRSEDTAVYYCAREGGFAYWGQGTLVTVSS VL: DIQMTQSPSSLSASVGDRVTITCKASQNVDTDVAWFQQKPGKAPKGLIYSASSRYSGVPSRFSGSGSGTDFTLTISSLQPEDFATYYCQQYNNYPLTFGQGTKVEIKR",
    "Measurement Name": "pKd",
    "Readout Value": 9.82
  },
  {
    "Binder": "AFD.v14 Fab (Fab, V domains shown, Variant of lampalizumab; also called SIESD.N103S) VH: EVQLVQSGPELKKPGASVKVSCKASGYTFTNYGMNWVRQAPGQGLEWMGWINTYTGETTYAEDFKGRFVFSLDTSVSTAYLQISSLKAEDTAVYYCEREGGVSNWGQGTLVTVSS VL: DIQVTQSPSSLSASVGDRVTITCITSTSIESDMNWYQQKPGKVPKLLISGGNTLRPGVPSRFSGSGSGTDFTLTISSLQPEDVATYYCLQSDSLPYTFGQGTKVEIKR",
    "Measurement Name": "pKd",
    "Readout Value": 10.25
  }
]
